The values you see were collected from patent US20240270821A1.

TARGET: T1, human GIP receptor (human) (UniProt P48546)
T1 sequence (looked up): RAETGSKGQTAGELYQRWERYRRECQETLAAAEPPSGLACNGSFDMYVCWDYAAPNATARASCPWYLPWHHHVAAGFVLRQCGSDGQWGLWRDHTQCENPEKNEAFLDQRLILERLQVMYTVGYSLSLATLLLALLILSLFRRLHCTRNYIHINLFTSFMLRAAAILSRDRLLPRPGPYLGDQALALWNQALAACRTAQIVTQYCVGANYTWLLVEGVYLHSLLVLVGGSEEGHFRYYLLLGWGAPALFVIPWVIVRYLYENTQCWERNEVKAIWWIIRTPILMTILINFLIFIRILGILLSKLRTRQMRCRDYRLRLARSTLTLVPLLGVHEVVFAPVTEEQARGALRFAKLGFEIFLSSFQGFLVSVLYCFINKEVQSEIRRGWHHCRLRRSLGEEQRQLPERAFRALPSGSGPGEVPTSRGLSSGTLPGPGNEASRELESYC
RUN DESCRIPTION: cell-based or functional assay
PROPERTY LABEL: Relative cAMP EC50 (nM)
Field format: number, assumed nM, no unit text.

Q: State, in one line, measured Relative cAMP EC50 of YXQGTFTSDFSXXLDKKAQXAFIEYLLEXGPSSGAPPPSGT (non-natural residues, acylated Lys (AEEA-γGlu-C18 diacid), C-terminal amide; synthetic construct; SITE 2: note = 2-Aminoisobutyric Acid; SITE 12: note = L-ornithine; SITE 13: note = alpha-methyl-leucine; SITE 17: note = Lysine is chemically modified through conjugation of the epsilon-amino group of the Lysine side chain with (2-[2-(2-Amino-ethoxy)-ethoxy]-acetyl)-(gamma-Glu)) [Example 200]
Ans: 0.0739

Q: Give the measured Relative cAMP EC50 for YXQGTFTSDXSXXLDKKAQXAFIEXLIEXGPSSGEPPPSGSE (Aib, 4Pal, Me4Pal, Orn, alpha-methyl-Leu, lipidated Lys, amide; synthetic construct; SITE 2: note = 2-Aminoisobutyric Acid; SITE 10: note = 3-(4-Pyridyl)-L-alanine; SITE 12: note = L-ornithine; SITE 13: note = alpha-methyl-leucine; SITE 17: note = Lysine is chemically modified through conjugation of the epsilon-amino group of the Lysine side chain with (gamma-Gl)) [Example 990]
Ans: 0.115

Q: Return value of Relative cAMP EC50 for input YXQGTXTSDXXIXLDXKAQXEFIEXLIEGGPSSGEPPPTGE (Non-natural residues; K acylated AEEA-γGlu-C18 diacid; C-terminal amide; synthetic construct; SITE 2: note = 2-Aminoisobutyric Acid; SITE 6: note = alpha-methyl-2-fluoro-L-phenylalanine; SITE 10: note = 3-(4-Pyridyl)-L-alanine; SITE 11: note = alpha-methyl-L-serine; SITE 13: note = alpha-methyl-leucine; SITE 16: note = L-ornithine; SITE 17: note = Lysine is chemically mo) [Example 1143] , no commentary.
Ans: 0.0087
